# Test system: normotensive anesthetized rat
# Method description: In vivo mean arterial pressure and heart rate in normotensive anesthetized rat
# Experimental setup: iv, dose lowering mean arterial pressure by 25%, read-out: Blood Press/Heart Rate Anesthetized Rat MAP/ED25
Kindly state ED25 for each of the entries shown.
Give bare numbers, in µg/kg.

Study these solved cases before continuing.
CCNC(=O)[C@H]1C[C@@H](n2cnc3c(NCCNc4nc5ccccc5s4)ncnc32)[C@H](O)[C@@H]1O (relative stereo) :: 16
Cc1csc(CNc2ncnc3c2ncn3[C@@H]2O[C@H](CO)[C@@H](O)[C@H]2O)n1 :: 2
CCNC(=O)[C@H]1O[C@@H](n2cnc3c(NCCNc4nc5ccccc5s4)ncnc32)[C@H](O)[C@@H]1O :: 6
OC[C@H]1O[C@@H](n2cnc3c(N[C@@H]4CC=CC[C@H]4c4ccsc4)ncnc32)[C@H](O)[C@@H]1O (relative stereo) :: 10
CCNC(=O)[C@H]1C[C@@H](n2cnc3c(NCCc4cccs4)ccnc32)[C@H](O)[C@@H]1O (relative stereo) :: 6

Query compound follows.
// returns ED25 for OC[C@H]1O[C@@H](n2cnc3c(N[C@@H]4CCCC[C@H]4c4cccs4)ncnc32)[C@H](O)[C@@H]1O (relative stereo) with normotensive anesthetized rat; value = 6

====

Kindly state pIC50 for each of the entries shown.
# Test system: swine coronary arteries
# Method description: In vitro vasorelaxation in isolated swine coronary arteries (PGF2α-contracted rings)
# Assay type: cell-based
# Experimental setup: Sus scrofa, read-out: Vasorelaxation (IC50)
Numbers only, as −log10 of the molar value.

Study these solved cases before continuing.
CCNC(=O)[C@H]1O[C@@H](n2cnc3c(N)nc(NCCc4ccc(CCC(=O)O)cc4)nc32)[C@H](O)[C@@H]1O [CGS21680, reference compound] :: 7.10
C[C@H](Cc1ccccc1)Nc1ncnc2c1ncn2[C@@H]1O[C@H](CO)[C@@H](O)[C@H]1O [R-PIA, R-phenylisopropyladenosine, reference compound] :: 6.12

The recorded pIC50 for entry OC[C@H]1O[C@@H](n2cnc3c(NC4CCCC4)ncnc32)[C@H](O)[C@@H]1O [CPA, N-cyclopentyladenosine, reference compound] equals 5.50

====

# Target: UniProt:P25099
# Method description: biochemical
# Experimental setup: rat whole brain membranes, 3H-CHA; Table II; read-out: Adenosine Receptor Binding Activity/IC50 (nM) A1
Doc: threshold 9 nM (exclusive). Items with IC50 beneath it return satisfied; others return not satisfied.

C[C@H](Cc1sccc1Cl)Nc1ncnc2c1ncn2[C@@H]1O[C@H](CO)[C@@H](O)[C@H]1O [Example 32] :: satisfied
Cc1ncsc1CCNc1ncnc2c1ncn2[C@@H]1O[C@H](CO)[C@@H](O)[C@H]1O [Example 12] :: not satisfied
Cc1csc(CNc2ncnc3c2ncn3[C@@H]2O[C@H](CO)[C@@H](O)[C@H]2O)n1 [Example 18] :: not satisfied
CCNC(=O)[C@H]1C[C@@H](n2cnc3c(N[C@H](CC)Cc4sccc4Cl)ncnc32)[C@H](O)[C@@H]1O [Example 34] :: satisfied
CCNC(=O)[C@H]1C[C@@H](n2cnc3c(N[C@H](C)Cc4ccc(Cl)s4)ncnc32)[C@H](O)[C@@H]1O [Example 6] :: satisfied
OC[C@H]1O[C@@H](n2cnc3c(NCCNc4nc5ccccc5s4)ncnc32)[C@H](O)[C@@H]1O [Example 9] :: satisfied
Cc1nc(CCNc2ncnc3c2ncn3[C@@H]2O[C@H](CO)[C@@H](O)[C@H]2O)cs1 [Example 14] :: not satisfied
OC[C@H]1O[C@@H](n2cnc3c(NCCc4nccs4)ncnc32)[C@H](O)[C@@H]1O [Example 13, N^6-[2-(2'-thiazolyl)ethyl]-adenosine] :: not satisfied

Query: Please determine if CCNC(=O)[C@H]1C[C@@H](n2cnc3c(NCCNc4nc5ccccc5s4)ncnc32)[C@H](O)[C@@H]1O (relative stereo) [Example 29] is below 9 nM in terms of IC50.
Response: not satisfied

Query: Please determine if CC(C)(Cc1cccs1)Nc1ncnc2c1ncn2[C@@H]1O[C@H](CO)[C@@H](O)[C@H]1O [Example 17] is below 9 nM in terms of IC50.
Response: not satisfied

Query: Please determine if CCNC(=O)[C@H]1C[C@@H](n2cnc3c(N[C@H](C)Cc4ccc(Cl)s4)ncnc32)[C@@H]2OC(C)(C)O[C@@H]21 [6(1)] is below 9 nM in terms of IC50.
Response: not satisfied

Query: Please determine if CCNC(=O)[C@H]1O[C@@H](n2cnc3c(NCCNc4nc5ccccc5s4)ncnc32)[C@H](O)[C@@H]1O [Example 23] is below 9 nM in terms of IC50.
Response: satisfied

Query: Please determine if CCOc1ccc2nc(SCCNc3ncnc4c3ncn4[C@@H]3O[C@H](CO)[C@@H](O)[C@H]3O)sc2c1 [Example 11] is below 9 nM in terms of IC50.
Response: satisfied

====

Kindly state IC50 for each of the entries shown.
# Target: A1 adenosine receptor (Rattus norvegicus, UniProt P25099)
# Sequence (P25099 whole entry): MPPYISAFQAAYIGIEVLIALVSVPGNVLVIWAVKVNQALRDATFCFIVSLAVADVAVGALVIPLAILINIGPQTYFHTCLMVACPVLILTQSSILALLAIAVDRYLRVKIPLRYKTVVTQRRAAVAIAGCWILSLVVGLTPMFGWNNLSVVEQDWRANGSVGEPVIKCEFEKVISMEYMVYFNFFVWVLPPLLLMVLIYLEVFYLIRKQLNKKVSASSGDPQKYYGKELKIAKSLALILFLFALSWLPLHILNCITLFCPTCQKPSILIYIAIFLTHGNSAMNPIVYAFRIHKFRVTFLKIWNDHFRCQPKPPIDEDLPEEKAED
# Method description: biochemical
# Experimental setup: rat whole brain membranes, 3H-CHA; Table II; read-out: Adenosine Receptor Binding Activity/IC50 (nM) A1
Answers are plain numbers, in nM.

OC[C@H]1O[C@@H](n2cnc3c(NCc4nc(-c5ccccc5)cs4)ncnc32)[C@H](O)[C@@H]1O :: 36
CCNC(=O)[C@H]1C[C@@H](n2cnc3c(N[C@H](C)Cc4ccc(Cl)s4)ncnc32)[C@@H]2OC(=O)O[C@@H]21 :: 55

// returns IC50 for CCNC(=O)[C@H]1C[C@@H](n2cnc3c(NCCc4cccs4)ncnc32)[C@H](O)[C@@H]1O with A1 adenosine receptor (Rattus norvegicus, UniProt P25099); value = 87.1

====

# Target: A2 adenosine receptor (Rattus norvegicus, UniProt P30543)
# Sequence (P30543 whole entry): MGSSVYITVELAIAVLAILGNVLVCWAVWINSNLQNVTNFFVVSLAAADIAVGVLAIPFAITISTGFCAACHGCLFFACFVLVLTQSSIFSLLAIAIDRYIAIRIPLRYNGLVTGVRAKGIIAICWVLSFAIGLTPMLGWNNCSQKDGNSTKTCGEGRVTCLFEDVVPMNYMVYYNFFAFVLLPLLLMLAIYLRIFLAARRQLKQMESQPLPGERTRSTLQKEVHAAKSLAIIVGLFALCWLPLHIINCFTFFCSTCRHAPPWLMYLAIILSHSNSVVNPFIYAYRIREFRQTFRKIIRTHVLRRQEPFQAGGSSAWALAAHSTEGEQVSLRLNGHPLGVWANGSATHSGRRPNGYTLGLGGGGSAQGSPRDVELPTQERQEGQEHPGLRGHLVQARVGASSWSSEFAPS
# Method description: biochemical
# Experimental setup: rat brain striatum membranes, 3H-CGS 21680; Table II; read-out: Adenosine Receptor Binding Activity/IC50 (nM) A2
Property label: IC50 (nM)
Answers are plain numbers, in nM.

CCNC(=O)[C@H]1C[C@@H](n2cnc3c(N[C@H](CC)Cc4sccc4Cl)ncnc32)[C@H](O)[C@@H]1O :: 23
OC[C@H]1O[C@@H](n2cnc3c(NCc4nc(-c5ccccc5)cs4)ncnc32)[C@H](O)[C@@H]1O :: 1000
CCNC(=O)[C@H]1C[C@@H](n2cnc3c(N[C@H](C)Cc4ccc(Cl)s4)ccnc32)[C@H](O)[C@@H]1O :: 43.4

Query compound follows.
// returns IC50 for CCNC(=O)[C@H]1C[C@@H](n2cnc3c(N[C@H](C)Cc4ccc(Cl)s4)ncnc32)[C@H](O)[C@@H]1O with A2 adenosine receptor (Rattus norvegicus, UniProt P30543); value = 12.9

====

# Tested on: swine coronary arteries
# Method description: In vitro vasorelaxation in isolated swine coronary arteries (PGF2α-contracted rings)
# Type: cell-based
# Experimental setup: Sus scrofa; 50% reduction in tension, 3 μM PGF2α; Table II; read-out: Vasorelaxation in Swine Coronary Artery/IC50
Property label: EC50 (nM)
One number for each entry, in nM.

Study these solved cases before continuing.
CCNC(=O)[C@H]1C[C@@H](n2cnc3c(N[C@H](C)Cc4ccc(Cl)s4)ccnc32)[C@H](O)[C@@H]1O :: 493
OC[C@H]1O[C@@H](n2cnc3c(NCCc4nccs4)ncnc32)[C@H](O)[C@@H]1O [Example 13, N^6-[2-(2'-thiazolyl)ethyl]-adenosine] :: 240

Query compound follows.
The recorded EC50 for entry CCNC(=O)[C@H]1O[C@@H](n2cnc3c(NCCNc4nc5ccccc5s4)ncnc32)[C@H](O)[C@@H]1O equals 4400

====

# System: normotensive anesthetized rat
# Method description: In vivo mean arterial pressure and heart rate in normotensive anesthetized rat
# Experimental setup: iv, dose lowering mean arterial pressure by 25%, read-out: Blood Press/Heart Rate Anesthetized Rat MAP/ED25
Kindly state ED25 for each of the entries shown.
Numbers only, in µg/kg.

Study these solved cases before continuing.
OC[C@H]1O[C@@H](n2cnc3c(NCCc4nccs4)ncnc32)[C@H](O)[C@@H]1O [Example 13, N^6-[2-(2'-thiazolyl)ethyl]-adenosine] :: 3
C[C@H](Cc1cc2ccccc2s1)Nc1ncnc2c1ncn2[C@@H]1O[C@H](CO)[C@@H](O)[C@H]1O :: 1.5

Batch of 5 compounds: report ED25 for each.
1. CCNC(=O)[C@H]1C[C@@H](n2cnc3c(NCCc4scnc4C)ncnc32)[C@H](O)[C@@H]1O (relative stereo)
2. Cc1ncsc1CCNc1ncnc2c1ncn2[C@@H]1O[C@H](CO)[C@@H](O)[C@H]1O
3. OC[C@H]1O[C@@H](n2cnc3c(N[C@@H]4CC=CC[C@H]4c4cccs4)ncnc32)[C@H](O)[C@@H]1O (relative stereo)
4. CCNC(=O)[C@H]1C[C@@H](n2cnc3c(NCCc4cccs4)ncnc32)[C@H](O)[C@@H]1O
5. OC[C@H]1O[C@@H](n2cnc3c(NCCNc4nc5ccccc5s4)ncnc32)[C@H](O)[C@@H]1O

Response:
[6, 4, 13, 4, 5]
